Where do the numbers come from? From patent US20130109846A1.

Measured Luciferase assay (EC50) of individual entries
# target-or-system: human CD28 (human, UniProt P10747 19-220)
# protocol-details: cell-based or functional assay

| binder | Luciferase assay (EC50) |
| --- | --- |
| 1h-79-21 (other) VL: DIQMTQSPSSLSASVGDRVTITCRASQPIGHSFAWYQQKPGKAPKLLIYWASTLQSGVPSRFSGSGSGTDFTLTISSLQPEDFATYYCQQMLRTPFTFGQGTKVEIKR | 3 µM |

// moving on: another record for Luciferase assay (EC50)
The reported Luciferase assay (EC50) of the binder 1h-18-6 (other) VL: DIQMTQSPSSLSASVGDRVTITCRASQYIGTSLNWYQQKPGKAPKLLIYQASLLQSGVPSRFSGSGYGTDFTLTISSLQPEDFATYYCQQLALRPMTFGQGTKVEIKR was 1.4 µM
